Property: Ki; scope: individual compounds
molecular target: Neuronal acetylcholine receptor subunit alpha-7 (Rattus norvegicus); assay: Displacement of [3H]MLA from rat alpha-7 nAChR/mouse 5HT3A chimera expressed in human tsA-201 cells
Sequence (Q05941 23-502 limits assumed): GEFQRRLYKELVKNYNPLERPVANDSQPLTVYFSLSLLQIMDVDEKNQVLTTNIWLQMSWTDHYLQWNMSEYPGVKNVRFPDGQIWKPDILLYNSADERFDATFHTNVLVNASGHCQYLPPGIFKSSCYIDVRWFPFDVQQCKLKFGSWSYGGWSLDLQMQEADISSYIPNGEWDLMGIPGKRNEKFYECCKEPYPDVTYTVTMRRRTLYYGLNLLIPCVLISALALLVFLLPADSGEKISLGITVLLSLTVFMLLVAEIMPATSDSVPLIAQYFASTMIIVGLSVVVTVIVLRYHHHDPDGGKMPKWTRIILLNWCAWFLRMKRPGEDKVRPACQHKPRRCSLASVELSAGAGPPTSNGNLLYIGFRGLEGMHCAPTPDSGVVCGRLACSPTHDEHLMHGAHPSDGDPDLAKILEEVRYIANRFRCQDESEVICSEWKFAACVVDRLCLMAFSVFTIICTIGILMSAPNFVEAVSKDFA

[
  {
    "compound": "CC(CCOC(=O)c1ccccc1)N(C)C (centres undefined)",
    "Ki": "190 µM"
  },
  {
    "compound": "CC(CCOC(=O)N1CCC1C)N(C)C (centres undefined)",
    "Ki": "> 1000 µM"
  },
  {
    "compound": "CC1CN(C(=O)OCCC(C)N(C)C)C1 (centres undefined)",
    "Ki": "> 1000 µM"
  },
  {
    "compound": "CC(C)C(=O)OCCC(C)N(C)C (centres undefined)",
    "Ki": "> 1000 µM"
  },
  {
    "compound": "CC(CCOC(=O)N(C)C)N(C)C (centres undefined)",
    "Ki": "> 1000 µM"
  },
  {
    "compound": "CC(CCOC(=O)C1CC1)N(C)C (centres undefined)",
    "Ki": "280 µM"
  },
  {
    "compound": "CC(CCOC(=O)C1CCC1)N(C)C (centres undefined)",
    "Ki": "290 µM"
  },
  {
    "compound": "CC(=O)OCCC(C)N(C)C (centres undefined)",
    "Ki": "> 1000 µM"
  },
  {
    "compound": "CC(CCOC(=O)n1cccc1)N(C)C (centres undefined)",
    "Ki": "> 1000 µM"
  }
]
